Where these numbers come from: patent EP4725490A1

assay.method.text: Solubility of compound A in various solvents (standard solubility determination)
Type: physicochemical
measurement.parameters: organic solvent or mixture; Acetonitrile; 25 °C
assay.endpoint: solubility (mg/mL)

In [3]: df
Out[3]:
                              line_notation  assay_endpoint  units_label  reading
0  CC(C)N1Cc2cc(C(F)(F)F)ncc2-c2cnc(NCc3c(F)ccc4c3CCO4)n3cnc(c23)C1=O      solubility        mg/mL      1.2

----------
assay.method.text: Solubility of compound A in various solvents (standard solubility determination)
Type: physicochemical
measurement.parameters: organic solvent or mixture; Methanol: dichloromethane (1:4); 25 °C
assay.endpoint: solubility (mg/mL)

In [3]: df
Out[3]:
                              line_notation  assay_endpoint  units_label  reading
0  CC(C)N1Cc2cc(C(F)(F)F)ncc2-c2cnc(NCc3c(F)ccc4c3CCO4)n3cnc(c23)C1=O      solubility        mg/mL       83
